Source: patent US7135466B2

# Target or test system: PDGF-R (Rattus norvegicus, UniProt Q05030)
# Sequence (Q05030 32-1097): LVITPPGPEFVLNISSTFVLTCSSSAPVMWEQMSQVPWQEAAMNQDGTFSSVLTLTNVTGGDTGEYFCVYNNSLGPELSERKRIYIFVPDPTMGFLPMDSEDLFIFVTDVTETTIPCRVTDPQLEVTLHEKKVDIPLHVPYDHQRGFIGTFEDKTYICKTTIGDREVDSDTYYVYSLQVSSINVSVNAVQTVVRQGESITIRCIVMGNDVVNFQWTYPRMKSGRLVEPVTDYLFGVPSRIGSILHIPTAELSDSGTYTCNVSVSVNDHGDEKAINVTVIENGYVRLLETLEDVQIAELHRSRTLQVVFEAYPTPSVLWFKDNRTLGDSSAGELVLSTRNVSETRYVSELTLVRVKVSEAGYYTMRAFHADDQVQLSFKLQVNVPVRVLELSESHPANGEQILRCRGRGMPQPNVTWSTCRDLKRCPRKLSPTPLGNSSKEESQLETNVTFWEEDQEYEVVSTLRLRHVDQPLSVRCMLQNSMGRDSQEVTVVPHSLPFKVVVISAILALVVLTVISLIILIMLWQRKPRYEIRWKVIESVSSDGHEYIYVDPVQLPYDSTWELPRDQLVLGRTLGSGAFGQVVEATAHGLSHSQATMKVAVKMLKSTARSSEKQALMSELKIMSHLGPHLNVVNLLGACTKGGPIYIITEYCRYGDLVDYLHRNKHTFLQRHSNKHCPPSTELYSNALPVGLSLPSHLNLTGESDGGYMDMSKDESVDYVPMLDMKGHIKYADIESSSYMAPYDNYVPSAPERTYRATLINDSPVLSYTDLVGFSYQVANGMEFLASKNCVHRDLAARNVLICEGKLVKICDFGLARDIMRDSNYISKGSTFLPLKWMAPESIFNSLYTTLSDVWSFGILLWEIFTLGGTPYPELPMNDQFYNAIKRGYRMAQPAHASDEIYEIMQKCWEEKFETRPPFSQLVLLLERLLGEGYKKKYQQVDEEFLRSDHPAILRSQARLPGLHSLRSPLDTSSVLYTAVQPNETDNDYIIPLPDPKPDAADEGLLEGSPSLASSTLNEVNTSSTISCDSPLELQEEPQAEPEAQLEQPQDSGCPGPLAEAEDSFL
# Protocol summary: PDGF-R autophosphorylation inhibition screening (dot plotting), vascular smooth muscle cells, PDGF-BB
# Format: cell-based
# Conditions used: figure in parentheses in −( ); at 1000 nM; read-out: PDGF (D) inhibition (%) at 1000 nM
Parameter: inhibition at 1 µM (%)

Below, 5 molecules whose answers are already recorded.
| Molecule | Value unit | Readout value |
| --- | --- | --- |
| COc1cc2nccc(Oc3ccc(NC(=S)NC(=O)c4ccc(Cl)cc4Cl)c(C)c3C)c2cc1OC [Example 1086] | % | 48 |
| CCCCCCCCCCCCCC(=O)NC(=S)Nc1ccc(Oc2ccnc3cc(OC)c(OC)cc23)cc1 [Example 1073] | % | 23 |
| COc1ccc(C(=O)NC(=S)Nc2ccc(Oc3ccnc4cc(OC)c(OC)cc34)cc2F)c(OC)c1 [Example 1123] | % | 43 |
| COc1cc2nccc(Oc3ccc(S(=O)(=O)CCOc4ccc(F)cc4)cc3)c2cc1OC [Example 829] | % | 30 |
| COc1cc2nccc(Oc3ccc(S(=O)(=O)CCOc4cccc(Cl)c4)cc3)c2cc1OC [Example 832] | % | 35 |

a. COc1cc2nccc(Oc3ccc([S+]([O-])CCOc4ccc(F)cc4[N+](=O)[O-])cc3)c2cc1OC (centres unmarked) [Example 839]
b. COc1cc2nccc(Oc3ccc(S(=O)(=O)CCOc4ccc(Cl)cc4Cl)cc3)c2cc1OC [Example 831]
Input: Could you determine which record has the numerically smaller inhibition at 1 µM? Candidates: a and b Which one? Tell me its label.
Output: a
(a: 24%, b: 50%)
